Source of measurements: patent US8563551B2

- measuredTarget: Recombinant human GR (Homo sapiens)
- Construct: purchased Invitrogen P2816
- Sequence (P04150 1-777): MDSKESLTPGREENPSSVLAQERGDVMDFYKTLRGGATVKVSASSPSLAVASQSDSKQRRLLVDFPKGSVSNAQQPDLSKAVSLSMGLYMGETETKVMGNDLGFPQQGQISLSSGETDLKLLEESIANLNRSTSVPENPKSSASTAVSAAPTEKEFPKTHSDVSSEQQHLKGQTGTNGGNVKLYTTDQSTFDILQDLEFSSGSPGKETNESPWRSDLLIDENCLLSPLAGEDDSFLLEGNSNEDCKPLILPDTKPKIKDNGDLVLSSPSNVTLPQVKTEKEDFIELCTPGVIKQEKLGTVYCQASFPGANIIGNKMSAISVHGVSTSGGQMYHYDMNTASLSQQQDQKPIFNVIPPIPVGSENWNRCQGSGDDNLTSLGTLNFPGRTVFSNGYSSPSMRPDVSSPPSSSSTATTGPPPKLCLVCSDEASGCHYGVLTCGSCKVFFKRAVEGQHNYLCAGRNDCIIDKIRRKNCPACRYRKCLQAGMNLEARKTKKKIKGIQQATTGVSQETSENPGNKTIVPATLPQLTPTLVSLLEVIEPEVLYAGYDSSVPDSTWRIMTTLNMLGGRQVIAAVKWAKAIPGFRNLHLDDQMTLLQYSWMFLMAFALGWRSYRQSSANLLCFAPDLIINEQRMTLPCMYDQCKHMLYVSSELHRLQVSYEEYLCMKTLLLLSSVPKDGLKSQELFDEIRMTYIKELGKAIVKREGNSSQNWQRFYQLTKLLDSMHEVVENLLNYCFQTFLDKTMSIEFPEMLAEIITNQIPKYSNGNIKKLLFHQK
- procedureDetails: GR competitor assay (receptor competitor assay by fluorescence polarization, Invitrogen kit P2816)
- conditionContext: 20 μM test compound solution (10 μL per well plus 5 μL 4×GS1 and 5 μL 4×GR); relative to 2 mM dexamethasone positive control; ratios of 100% or more are indicated by 100%; read-out: GR Binding ratio (%)
- Method: In order to evaluate a binding activity to GR, a receptor competitor assay was carried out by a fluorescence polarization method. […] 3) By using a multimode plate reader, Analyst™ HT (manufactured by LJL Biosystems), fluorescence polarization of each well was measured. […] A GR binding ratio (%) was calculated from the following equation. […]
testReadout: inhibition at 20 µM (stock) (%)

COc1cc(OC(=O)c2ccoc2)ccc1-c1ccc2c(c1COC(=O)c1ccc(C)s1)C(C)=CC(C)(C)N2	94
COC(=O)Oc1ccc(-c2ccc3c(c2COC(=O)c2ccc(C)s2)C(C)=CC(C)(C)N3)c(OC)c1	91
CCCCS(=O)(=O)Oc1ccc(-c2ccc3c(c2COC(=O)c2ccc(C)s2)C(C)=CC(C)(C)N3)c(OC)c1	100
COc1cc(OC(=O)C(C)C)ccc1-c1ccc2c(c1COC(=O)c1ccc(C)s1)C(C)=CC(C)(C)N2	100
COc1cc(OC(=O)c2ccc(C)cc2)ccc1-c1ccc2c(c1COC(=O)c1ccc(C)s1)C(C)=CC(C)(C)N2	96
CCCS(=O)(=O)Oc1ccc(-c2ccc3c(c2COC(=O)c2ccc(C)s2)C(C)=CC(C)(C)N3)c(OC)c1	99
COc1cc(OC(=O)c2cccnc2)ccc1-c1ccc2c(c1COC(=O)c1ccc(C)s1)C(C)=CC(C)(C)N2	96
COc1cc(OC(=O)c2ccccc2C)ccc1-c1ccc2c(c1COC(=O)c1ccc(C)s1)C(C)=CC(C)(C)N2	89
COc1cc(OC(=O)c2ccsc2)ccc1-c1ccc2c(c1COC(=O)c1ccc(C)s1)C(C)=CC(C)(C)N2	94
COc1cc(OC(=O)c2cncnc2)ccc1-c1ccc2c(c1COC(=O)c1ccc(C)s1)C(C)=CC(C)(C)N2	94
COc1cc(OC(=O)c2cccnc2)ccc1-c1ccc2c(c1COC(=O)c1ccc(Br)s1)C(C)=CC(C)(C)N2	100
COc1cc(OC(=O)c2cccnc2)ccc1-c1ccc2c(c1COC(=O)c1ccc(C)cc1)C(C)=CC(C)(C)N2	100
COc1ccc(C(=O)OCc2c(-c3ccc(OC(=O)c4ccco4)cc3OC)ccc3c2C(C)=CC(C)(C)N3)cc1	100
COc1ccccc1C(=O)Oc1ccc(-c2ccc3c(c2COC(=O)c2ccc(C)s2)C(C)=CC(C)(C)N3)c(OC)c1	93
COc1cc(OC(=O)N2CCOCC2)ccc1-c1ccc2c(c1COC(=O)c1ccc(C)s1)C(C)=CC(C)(C)N2	94
COc1cc(OC(=O)c2cccc(C)c2)ccc1-c1ccc2c(c1COC(=O)c1ccc(C)s1)C(C)=CC(C)(C)N2	99
COc1cc(OC(=O)c2cccs2)ccc1-c1ccc2c(c1COC(=O)c1ccc(C)s1)C(C)=CC(C)(C)N2	96
COc1cc(OS(=O)(=O)CCC(F)(F)F)ccc1-c1ccc2c(c1COC(=O)c1ccc(C)s1)C(C)=CC(C)(C)N2	97
COc1cc(OC(=O)c2ccccc2[N+](=O)[O-])ccc1-c1ccc2c(c1COC(=O)c1ccc(C)s1)C(C)=CC(C)(C)N2	98
COc1cc(OC(=O)c2ccccc2OC(C)=O)ccc1-c1ccc2c(c1COC(=O)c1ccc(C)s1)C(C)=CC(C)(C)N2	96
COc1ccc(C(=O)OCc2c(-c3ccc(OC(=O)c4cccnc4)cc3OC)ccc3c2C(C)=CC(C)(C)N3)cc1	95
COc1ccc(C(=O)OCc2c(-c3ccc(OC(=O)c4ccccc4Cl)cc3OC)ccc3c2C(C)=CC(C)(C)N3)cc1	100
COc1cc(OC(=O)c2occc2C)ccc1-c1ccc2c(c1COC(=O)c1ccc(C)s1)C(C)=CC(C)(C)N2	90
COc1cc(OS(=O)(=O)C2CCCC2)ccc1-c1ccc2c(c1COC(=O)c1ccc(C)s1)C(C)=CC(C)(C)N2	100
COc1cc(OC(=O)c2ccc(F)cc2)ccc1-c1ccc2c(c1COC(=O)c1ccc(C)s1)C(C)=CC(C)(C)N2	96
COc1cc(OS(C)(=O)=O)ccc1-c1ccc2c(c1COC(=O)c1ccc(C)s1)C(C)=CC(C)(C)N2	100
COc1cc(OC(=O)c2ccncc2)ccc1-c1ccc2c(c1COC(=O)c1ccc(C)s1)C(C)=CC(C)(C)N2	96

###

- measuredTarget: Recombinant human GR (Homo sapiens)
- Construct: purchased Invitrogen P2816
- procedureDetails: GR competitor assay (receptor competitor assay by fluorescence polarization, Invitrogen kit P2816)
- conditionContext: 20 μM test compound solution (10 μL per well plus 5 μL 4×GS1 and 5 μL 4×GR); relative to 2 mM dexamethasone positive control; ratios of 100% or more are indicated by 100%; read-out: GR Binding ratio (%)
testReadout: inhibition at 20 µM (stock) (%)

CCS(=O)(=O)Oc1ccc(-c2ccc3c(c2COC(=O)c2ccc(C)s2)C(C)=CC(C)(C)N3)c(OC)c1	100
COc1cc(OC(=O)c2cccc(C(C)=O)c2)ccc1-c1ccc2c(c1COC(=O)c1ccc(C)s1)C(C)=CC(C)(C)N2	89
COc1cc(OC(=O)c2ccco2)ccc1-c1ccc2c(c1COC(=O)c1ccc(C)s1)C(C)=CC(C)(C)N2	96
COc1cc(OC(=O)c2cccc(Cl)c2)ccc1-c1ccc2c(c1COC(=O)c1ccc(C)s1)C(C)=CC(C)(C)N2	85
COc1cc(OC(=O)c2ccccc2Cl)ccc1-c1ccc2c(c1COC(=O)c1ccc(C)s1)C(C)=CC(C)(C)N2	91
COc1cc(OS(=O)(=O)C(C)C)ccc1-c1ccc2c(c1COC(=O)c1ccc(C)s1)C(C)=CC(C)(C)N2	100
COc1cc(OC(=O)c2cccnc2C)ccc1-c1ccc2c(c1COC(=O)c1ccc(C)s1)C(C)=CC(C)(C)N2	96
COc1cc(OC(=O)c2sccc2Cl)ccc1-c1ccc2c(c1COC(=O)c1ccc(C)s1)C(C)=CC(C)(C)N2	88
COc1cc(OC(=O)c2ccco2)ccc1-c1ccc2c(c1COC(=O)c1ccc(Br)s1)C(C)=CC(C)(C)N2	100
COc1cc(OC(=O)c2ccc(C)nc2)ccc1-c1ccc2c(c1COC(=O)c1ccc(C)s1)C(C)=CC(C)(C)N2	93
COc1ccc(C(=O)Oc2ccc(-c3ccc4c(c3COC(=O)c3ccc(C)s3)C(C)=CC(C)(C)N4)c(OC)c2)cc1	91
COc1ccccc1C(=O)Oc1ccc(-c2ccc3c(c2COC(=O)c2ccc(C)cc2)C(C)=CC(C)(C)N3)c(OC)c1	100
COc1cc(OC(=O)c2ccc(Cl)cc2)ccc1-c1ccc2c(c1COC(=O)c1ccc(C)s1)C(C)=CC(C)(C)N2	84
COc1cc(OS(=O)(=O)C2CC2)ccc1-c1ccc2c(c1COC(=O)c1ccc(C)s1)C(C)=CC(C)(C)N2	100
